Each entry below carries its recorded log10(Ki).
# assayed target: T1, human glucagon receptor (human, UniProt P47871 26-477)
# T1 construct: whole, on cells; also called hGCGR; hGcgR
# T1 sequence (P47871 26-477): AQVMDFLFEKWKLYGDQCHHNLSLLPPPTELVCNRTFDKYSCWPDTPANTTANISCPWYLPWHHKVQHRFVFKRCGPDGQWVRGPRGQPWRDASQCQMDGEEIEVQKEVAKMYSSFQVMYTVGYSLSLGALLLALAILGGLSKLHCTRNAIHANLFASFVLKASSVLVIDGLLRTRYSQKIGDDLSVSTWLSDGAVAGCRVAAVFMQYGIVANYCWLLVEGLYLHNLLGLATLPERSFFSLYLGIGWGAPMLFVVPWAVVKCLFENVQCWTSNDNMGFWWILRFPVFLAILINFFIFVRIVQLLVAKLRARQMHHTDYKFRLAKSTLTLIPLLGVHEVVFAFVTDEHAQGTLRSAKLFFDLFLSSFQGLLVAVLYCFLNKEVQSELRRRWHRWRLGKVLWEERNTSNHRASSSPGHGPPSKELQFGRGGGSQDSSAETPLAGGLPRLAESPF
# assay name: SPA competition vs [125I]-Gcg, hGcgR membranes
*1 amine or outer side, *2 acyl side, *3 side chain or, on linkers, in order; H or OH if unused. Where no end group is shown, it is not given here. Side-chain parts run from the residue outwards. [ ]: non-standard residue; d: D form. The star is where a group is joined. αMePhe(2-F) = C[C@](N)(Cc1ccccc1F)C(=O)O; γGlu = O=C(O)[C@H](CCC(=O)[*:2])N[*:1]; αMeY = C[C@](N)(Cc1ccc(O)cc1)C(=O)O; 4Pal = N[C@@H](Cc1ccncc1)C(=O)O; αMeL = CC(C)C[C@](C)(N)C(=O)O; Lauroyl = CCCCCCCCCCCC(=O)*; Orn = NCCC[C@H](N)C(=O)O; AEEA = NCCOCCOCC(=O)O; Aib = CC(C)(N)C(=O)O
quantity: log10(Ki) (log10 of the value in nM)

binder	log10(Ki)
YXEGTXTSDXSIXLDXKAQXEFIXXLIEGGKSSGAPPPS (Aib2, αMeF(2F)6, 4Pal10, αMeL13, Orn16, K17(Z1), Aib20, D-Glu24, αMeY25, K31(Z1), C-term NH2; Z1=(εK)-(εK)-(γ-Glu)-CO-(CH2)12-CO2H)	2.35
Y[Aib]EGT[αMePhe(2-F)]TSDK([AEEA-AEEA-γGlu-Lauroyl])[Aib]I[αMeL]LD[Orn]K([AEEA-AEEA-γGlu-Lauroyl])AQ[Aib][4Pal]FI[dE][αMeY]LIEGGPSSGAPPPS-NH2	1.71
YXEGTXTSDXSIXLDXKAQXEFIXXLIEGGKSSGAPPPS (Aib2, αMeF(2F)6, 4Pal10, αMeL13, Orn16, K17(Z1), Aib20, D-Glu24, αMeY25, K31(Z1), C-term NH2; Z1=AEEA-(γ-Glu)-CO-(CH2)14-CH3)	-0.01
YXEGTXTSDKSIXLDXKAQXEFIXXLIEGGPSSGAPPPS (Aib2, αMeF(2F)6, K10(Z1), αMeL13, Orn16, K17(Z1), Aib20, D-Glu24, αMeY25, C-term NH2; Z1=AEEA2-(γ-Glu)-CO-(CH2)14-CH3)	-0.03
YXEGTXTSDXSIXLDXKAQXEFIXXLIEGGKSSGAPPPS (Aib2, αMeF(2F)6, 4Pal10, αMeL13, Orn16, K17(Z1), Aib20, D-Glu24, αMeY25, K31(Z1), C-term NH2; Z1=AEEA-(γ-Glu)-CO-(CH2)10-CH3)	1.25

meta.source: patent US20230265151A1
